Each recorded value in this set is attributed to the supplement of paper PMC10567573.

B1: PTPN9 (parent)
chain: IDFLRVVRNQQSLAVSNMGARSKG

variants of: B1; assay: protein stability index of a GFP-peptide fusion (GPS, HEK-293T) (PSI 1-6); higher = more stable; conditions: c terminus: a fixed tail appended;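 further: lentivirally expressed fusions sorted by FACS into six bins by GFP to DsRed ratio, PSI derived from sequencing read proportions per bin multiplied by bin number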
measured_attribute: protein stability index

- Q11F: 1.95
- G24P: 2.2
- V7Q: 2.97
- N17W: 2.14
- L4R: 3.06
- K23H: 1.75
- V7C: 3.07
- R8T: 2.13
- A20D: 2.57
- G19L: 2.12
- A14C: 2.01
- G24Y: 3.1
- I1W: 2.88
- N17H: 2.9
- V15A: 2.82
- Q11E: 2.35
- R5V: 1.83
- S12M: 2.22
- R21L: 1.7
- R5C: 1.48
- L4M: 2.48
- N9E: 2.67
- I1Y: 3.47
- Q11L: 1.81
- G19F: 2.94
- F3L: 2.47
- Q10R: 2.19
- D2S: 2.55
- R8Y: 1.78
- Q11V: 1.67
- G19M: 2.3
- A14V: 2.22
- N9D: 3.66
- V15H: 2.56
- G19C: 2.24
- Q11N: 2.84
- A14Y: 2.04
- S22L: 2.07
- G19V: 2.13
- R21C: 1.83
- F3W: 2.17
- K23R: 2.4
- R21V: 2
- Q10V: 2.02
- R5L: 2.38
- M18H: 2.91
- R5Q: 3.27
- R21Q: 2.18
- S16V: 1.9
- Q10E: 2.87
- V15C: 2.28
- V15Y: 2.15
- G19I: 2.19
- V15E: 2.69
- V6K: 2.8
- S12E: 2.65
- A14D: 2.17
- G24K: 3.05
- L4C: 2.94
- R8V: 1.88
- S16R: 2.78
- I1A: 3.18
- S12N: 2.1
- S12T: 2.15
- M18A: 3.02
- R8P: 2.51
- L13F: 2.34
- A14N: 2.4
- S16T: 2.2
- D2N: 2.06
- R5N: 3.24
- M18S: 3.13
- Q11H: 2.26
- G19T: 2.27
- G24C: 1.84
- R21W: 2.18
- S22C: 2.51
- V7W: 2.91
- I1L: 2.95
- N9V: 1.89
- V6D: 3.26
- F3P: 4.2
